- Tested on: MS2 coat protein
- assay-overview: apparent KD of MS2 coat protein; higher = weaker reporter binding
- condition-label: Eterna round: R107; input ligand: arginine 13.2 mM
readout: apparent KD of MS2 coat protein

# return recorded apparent KD of MS2 coat protein for input UGGGUUGGACCAGGAAAUGGUCUGACUCACCGAGGACCGGUACGGCCGCCACUCGUAGGUACAUGAGGAUCACCCAUGUCGGUGG [#1 Same State - Tryptophan A Attempt #11 (HarryS)]
91.7 nM

Give apparent KD of MS2 coat protein for the following sequence: AUCGUACCUGAGGAUACCAGCAUGUGAUCAUAACAUGAGGAUCACCCAUGUAAUCAGUGAUGCCCUUGGCAGCUUGAUCGGUACA [Same State - Theophylline B (Freestyle 11)]
53.4 nM

Specify reported apparent KD of MS2 coat protein for the sequence shown: GGGUACAUCGCGGCCGCCACUUAUGUAAAUACAUGAGGAUCACCCAUGUCGAUGGAGACAUCGGAAAGGACCGGGUGAUGUACCG
130 nM
